Test system: MAK;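 note: KINOMEscan kinase panel screen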
Conditions: concentration: 1 μM, replicates: in singlicate; n = 1
Provide the reported %Inh of each item.
One number for each entry, in %.

Here are 3 compounds together with their reported answers.
[
  {
    "compound": "CN1c2ccc(-c3ccc(C(=O)NCCO)cc3)cc2-c2[nH]ncc2S1(=O)=O",
    "outcome-measure": "%Inh",
    "units-symbol": "%",
    "experimental-value": 0
  },
  {
    "compound": "CCC(CC)(CC)n1cnc2c(N)ncnc21",
    "outcome-measure": "%Inh",
    "units-symbol": "%",
    "experimental-value": 12
  },
  {
    "compound": "COC(=O)c1c(-c2ccccc2)c2cc(Cl)ccc2c(=O)n1Cc1ccc(S(C)(=O)=O)cc1",
    "outcome-measure": "%Inh",
    "units-symbol": "%",
    "experimental-value": 5
  }
]

Your task in this section: give %Inh for each listed record.
1. CC(C)(C)OC(=O)NC1CCCN(c2cc(-c3ccc4c(N)n[nH]c4c3)nc(N)n2)C1 (stereo not shown)
2. CCc1nc(-c2cccc(C)c2)c(-c2ccnc(NC(=O)c3ccccc3)c2)s1
3. CC(=O)Nc1n[nH]c2ncc(-c3ccccc3)cc12
4. CN1CCC(n2cnc(-c3ccc(F)cc3)c2-c2ccnc(NC3CCNCC3)n2)CC1
5. O=C(NCCCN1CCCC1=O)c1cnc(NCc2cc(Cl)ccc2Cl)nc1NC1CCNCC1
6. Cl.c1ccc(Cn2ccc3cc(Nc4ncnc5ccccc45)ccc32)cc1
7. COc1ccc(Nc2nccc(N3CCC(NC(=O)Nc4ccc5c(c4)OCO5)C3)n2)cc1 (stereo not shown)

[reply]
17
16
51
29
84
25
20
